- Method Notes: Induction of superoxide generation measured per U of enzyme in presence of NQO-1
- Format: physicochemical
Metric: Activity (µmol/L/min)
Answers are plain numbers, in µmol/L/min.

Examples from the recorded data:
compound_structure_string=O=C1c2ccsc2C(=O)c2c(O)cccc21 unit_info=µmol/L/min value_measured=0.3
compound_structure_string=CCc1noc(-c2cc3c(s2)C(=O)c2c(O)cccc2C3=O)n1 unit_info=µmol/L/min value_measured=0.7

Respectfully, I request Activity for each entry included below.
1. CC1=CC(=O)c2ccccc2C1=O
2. CC(=O)c1cc2c(s1)C(=O)c1c(O)cccc1C2=O

1: 1; 2: 0.6

###

- Tested on: HaCaT
- Method Notes: Induction of superoxide generation in human HaCaT cells assessed as apoptotic cells at 5 umol/L for 18 hrs chronic treatment (reference value: 3 +/- 1%)
- Type: functional
Metric: Activity (%)
Give bare numbers, in %.

Use these answered entries as a reference point.
compound=CC(=O)c1cc2c(s1)C(=O)c1c(O)cccc1C2=O value_measured=23
compound=O=C1c2ccsc2C(=O)c2c(O)cccc21 value_measured=4.9
compound="CC1=CC(=O)c2ccccc2C1=O [MENADIONE]" value_measured=4.8

Look up Activity for this compound: CCc1noc(-c2cc3c(s2)C(=O)c2c(O)cccc2C3=O)n1 77.6

Data credit: ChEMBL document CHEMBL3351891
